# target-under-test: mGluR5 (Rattus norvegicus, UniProt P31424)
# Construct: The procedure allows the expression of the mGluR5 receptor by astrocytes; endogenous in cells
# Sequence (P31424 21-1203): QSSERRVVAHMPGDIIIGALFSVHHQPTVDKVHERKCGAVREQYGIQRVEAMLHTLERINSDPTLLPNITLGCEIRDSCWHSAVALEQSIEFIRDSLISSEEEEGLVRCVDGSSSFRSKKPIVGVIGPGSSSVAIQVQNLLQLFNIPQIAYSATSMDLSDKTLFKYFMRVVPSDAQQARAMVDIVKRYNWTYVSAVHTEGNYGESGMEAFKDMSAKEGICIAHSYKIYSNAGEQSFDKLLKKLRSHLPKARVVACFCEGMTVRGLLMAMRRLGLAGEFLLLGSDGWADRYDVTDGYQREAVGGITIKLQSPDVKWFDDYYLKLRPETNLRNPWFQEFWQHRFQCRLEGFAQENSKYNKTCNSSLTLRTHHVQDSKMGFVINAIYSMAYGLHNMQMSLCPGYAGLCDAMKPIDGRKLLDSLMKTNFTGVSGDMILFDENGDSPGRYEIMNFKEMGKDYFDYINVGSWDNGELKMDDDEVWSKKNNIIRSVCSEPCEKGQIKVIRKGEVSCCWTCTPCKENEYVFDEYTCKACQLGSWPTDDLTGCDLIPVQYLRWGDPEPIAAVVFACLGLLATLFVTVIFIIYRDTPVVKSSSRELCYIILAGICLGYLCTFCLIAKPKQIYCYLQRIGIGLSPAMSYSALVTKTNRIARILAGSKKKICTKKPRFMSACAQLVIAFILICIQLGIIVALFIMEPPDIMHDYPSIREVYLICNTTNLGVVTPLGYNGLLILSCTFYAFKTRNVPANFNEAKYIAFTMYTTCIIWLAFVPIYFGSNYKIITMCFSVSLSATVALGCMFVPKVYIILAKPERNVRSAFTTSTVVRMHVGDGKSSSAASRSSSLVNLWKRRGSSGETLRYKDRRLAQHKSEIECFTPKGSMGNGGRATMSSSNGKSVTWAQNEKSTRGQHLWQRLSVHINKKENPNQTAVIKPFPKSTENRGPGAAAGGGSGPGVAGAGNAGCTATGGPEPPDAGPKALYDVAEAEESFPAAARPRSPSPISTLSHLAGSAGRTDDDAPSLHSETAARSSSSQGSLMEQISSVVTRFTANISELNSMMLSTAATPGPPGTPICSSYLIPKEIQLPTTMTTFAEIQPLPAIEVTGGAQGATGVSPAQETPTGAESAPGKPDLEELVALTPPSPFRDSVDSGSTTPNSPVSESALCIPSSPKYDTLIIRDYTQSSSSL
# assay: Inhibition of glutamate induced calcium mobilization in astrocytes expressing mGluR5 (Fluo-4, Fluorometric Imaging Plate reader)
# condition-label: final glutamate 10 mM (FIG. 1 legend: 10 μM), mean of 3 experiments
# Method: Cell cultures: Primary glial cultures were prepared from cortices of Sprague-Dawley 18 days old embryos. The cortices were dissected and then dissociated by trituration. […]
test-readout: IC50 (nM)
State the answer as a number, implicitly in nM.

Incoming: Suppose we examine the molecule O=C(C#Cc1ccccc1)N1CCN(c2ncccc2[N+](=O)[O-])CC1 [Compound AA] ; what IC50 value has been reported?
Outgoing: 8.9
